Attribution: a melting point compilation (Tetko et al.; mined from patent text by program, amines drawn as free bases though some values may be those of a salt)

observationType: melting point

- compound: "Brc1cccc(-c2ccccc2)n1"
  melting point: "50 °C"

Data request: Which melting point value belongs to `Cc1c(C(=O)O)cccc1-n1cccc1` ?
Data returned: 146 to 148 °C

Data request: Likewise for `NC(=O)C1CCN(C(=O)CNC(=O)OCc2ccccc2)CC1` ?
Data returned: 146 to 149 °C

Data request: Likewise for `N#Cc1ccccc1OC(=O)CCC1CCN(C(=N)N)CC1` ?
Data returned: 160 to 162 °C

Data request: Likewise for `O=C(Cc1c[nH]c2ccccc12)Nc1ccc(-n2nc(C3CC3)cc2C2CC2)cc1` ?
Data returned: 158 to 164 °C

Data request: Likewise for CC(Cl)c1ccc(-c2ccc(Cl)cc2)cc1 (stereo unspecified) ?
Data returned: 100 to 102 °C

Data request: Likewise for CCS(=O)(=O)Nc1c(C)c(C)c2c(c1C)C(c1ccc(C(C)C)cc1)CO2 (stereo unspecified) ?
Data returned: 132 to 133 °C

###

observationType: melting point

- molecule: "Cc1nc2ccc(Sc3cccc4cnccc34)cc2o1"
  observationType: "melting point"
  recordedValue: "140 to 142 °C"
- molecule: "CS(=O)N1CCSc2cccc(Cl)c2C1 (stereo not given)"
  observationType: "melting point"
  recordedValue: "82 to 84 °C"

Data request: Which melting point value belongs to `COc1ccc(C[C@@H](COC(C)=O)NC(=O)c2ccnc(-n3nc(-c4cccnc4)c4ccccc4c3=O)c2)cc1OC` ?
Data returned: 85 to 87 °C

###

observationType: melting point

- compound: "Cn1nnc(-c2cccc(Oc3cccc(C(F)(F)F)c3)n2)n1"
  melting point: "58 to 61 °C"
- compound: "CCOc1ccnc(F)c1N"
  melting point: "76 to 77 °C"
- compound: "Cc1ccc2c(c1)C=Cn1c(nnc1S(C)=O)C2 (configuration not stated)"
  melting point: "158 to 159 °C"
- compound: "O=C1O[C@H](c2ccccc2)[C@H](c2ccccc2)N[C@H]1Cc1ccccc1C1CCCCC1"
  melting point: "159 to 160 °C"
- compound: "Clc1nccc2cc(Br)ccc12"
  melting point: "103 to 104 °C"
- compound: "CC(C)(C)OC(=O)C1=Cc2cc(Br)ccc2OC1"
  melting point: "96 to 97 °C"

Data request: Which melting point value belongs to `CCCCCCS(=O)(=O)c1ccc(N)cc1` ?
Data returned: 95 to 97 °C

Data request: Likewise for `FC(F)C(F)(F)Sc1nc(-c2ccc(Cl)cc2)c(-c2cccs2)[nH]1` ?
Data returned: 162 to 163 °C

Data request: Likewise for `Cc1nc2c(N)nc3cccnc3c2n1CC(C)C` ?
Data returned: 228 to 230 °C

Data request: Likewise for `O=C(OCCCSc1cccc2nccn12)c1ccccc1` ?
Data returned: 60 to 61 °C

###

Each entry below lists one item and its recorded melting point value.

Known results for molecules:
- molecule: "O=C(NCCO)c1c([N+](=O)[O-])cccc1S(=O)(=O)NCCO"
  melting point: "176 to 178 °C"
- molecule: "Cc1ccc(SN(CC(=O)OCc2ccccc2)CP(=O)(Oc2ccccc2)Oc2ccccc2)cc1"
  melting point: "108 to 111 °C"
- molecule: "Cc1nnc2n1-c1ccccc1C(c1ccc(Cl)cc1)=NN2Cc1ccc(NS(C)(=O)=O)cc1"
  melting point: "273 to 275 °C"

Data request: Which melting point value belongs to `O=C(O)CCc1ccc2c(c1)Cc1ccccc1CO2` ?
Data returned: 181 to 183 °C

Data request: Likewise for `CCN(CC)C(=O)c1ccc(C(=C2CC3CCC(C2)N3C)c2ccccc2)cc1` ?
Data returned: 145 to 147 °C

Data request: Likewise for `CC(C)(C)[Si](C)(C)O[C@@H]1C=CO[C@H](CO)[C@H]1O` ?
Data returned: 55 to 56 °C

Data request: Likewise for `N#Cc1c(Cl)[nH]c(-c2ccc(Cl)c(Cl)c2)c1Cl` ?
Data returned: > 200 °C

Data request: Likewise for `O=C(CCC1CCNCC1)c1ccc2c(c1)NCCCC2` ?
Data returned: 104 to 107 °C

Data request: Likewise for `CCCCc1ccc(OC)c(-c2csc(NC(=O)c3ccc(C(=O)O)cc3)n2)c1` ?
Data returned: 160 °C

Data request: Likewise for `CC(C)(C)OC(=O)Cn1c(C(=O)O)cc2cc(N)ccc21` ?
Data returned: 128 °C

Data request: Likewise for `Cc1ccc2nc(-c3cccnc3N)n(-c3ccc(CC(=O)c4ccccc4)cc3)c2n1` ?
Data returned: 194 to 196 °C

Data request: Likewise for `CCCCCCN(CCCCCC)CC1CCN(C(=O)Oc2ccc(Oc3ccccc3)cc2)CC1` ?
Data returned: 46 to 47 °C

Data request: Likewise for `N#Cc1c(OC(F)(F)Br)ncnc1N1CCc2ccccc2CC1` ?
Data returned: 95 to 100 °C

Data request: Likewise for OC(CCc1cccnc1)COc1ccc(OCc2ccccc2)cc1 (configuration not stated) ?
Data returned: 79 to 82 °C

Data request: Likewise for CC(Sc1nc(SCc2ccccc2)n[nH]1)C(=O)O (configuration not stated) ?
Data returned: 123 to 124 °C

###

Each entry below lists one item and its recorded melting point value.

- compound: "COc1ccc(CN2Cc3c(-c4nc(C5CC5)no4)ncn3-c3ccc(OC)cc3C2=O)c(OC)c1"
  melting point: "> 240 °C"
- compound: "CN1C(=O)C2(CCN(CCCC(O)c3ccc(F)cc3)CC2)c2ccccc21 (stereo not given)"
  melting point: "126 to 128 °C"
- compound: "Cc1oc(-c2ccccc2)nc1CCOc1ccc(CC(C)(C)C(=O)O)cc1"
  melting point: "133 to 134 °C"
- compound: "COC(=O)C(CCSC)N(C(=O)OC(C)(C)C)C(=O)c1ccc(N)cc1 (stereo not given)"
  melting point: "184 to 185 °C"
- compound: "COc1cccc2c1CCC=C2N1CCOCC1"
  melting point: "80 to 90 °C"
- compound: "COc1ccc2[nH]cc(CCN=c3sc4ccccc4s3)c2c1"
  melting point: "139 to 140 °C"
- compound: "Fc1cccc2c(OCCc3ccc(Cl)cc3)ccnc12"
  melting point: "139 to 140 °C"
- compound: "NC(=NCC(F)(F)F)Nc1cncc(SCCCC(=O)Nc2ccccc2)n1"
  melting point: "165 to 167 °C"
- compound: "N#Cc1nn(-c2c(Cl)cc(C(F)(F)F)cc2Cl)c(N)c1-c1ccccc1"
  melting point: "198 to 199 °C"

Data request: Which melting point value belongs to CCOCN1N=NC(=S)C1C (stereo not given) ?
Data returned: 137 to 138 °C

###

Each entry below lists one item and its recorded melting point value.

Known results for compounds:
- compound: "CC(OC(=O)Nc1ccc(-c2ncn(-c3ccc(OC(F)(F)F)cc3)n2)cc1)C1CC1 (stereo not given)"
  melting point: "123 to 124 °C"
- compound: "Cc1cc(-n2ccnc2)c2cccc(OCc3c(Cl)ccc(S(=O)(=O)N4CCC[C@H]4C(=O)NCC4CCN(CC(=O)OC(C)(C)C)CC4)c3Cl)c2n1"
  melting point: "100 °C"
- compound: "CCc1ccc(C(=O)CCCSc2nnnn2C)cc1"
  melting point: "68 to 69 °C"
- compound: "N#Cc1cc(C(=O)c2ccncc2)ccc1O"
  melting point: "310 to 311 °C"
- compound: "Cn1c(C(F)(F)F)cc(C#N)c1-c1ccc(Cl)cc1"
  melting point: "130 °C"

Data request: Which melting point value belongs to `CCN(CC)CCc1ccc2[nH]c(C)c(C(=O)O[C@@H](C)c3ccccc3)c2c1` ?
Data returned: 95 to 97 °C

Data request: Likewise for `COC(=O)c1c(C)nc(C)c(C(=O)OC)c1-c1ccccc1[N+](=O)[O-]` ?
Data returned: 99 to 101 °C

Data request: Likewise for `O=C1CCCN1c1cn(-c2cccnc2)nc1Cl` ?
Data returned: 109 to 110 °C

Data request: Likewise for CN1CCN(C2c3ccccc3CC2O)CC1 (stereo not given) ?
Data returned: 132 °C

Data request: Likewise for CC(=O)NCC1CN(c2ccc(N3CCN(c4nncs4)CC3)c(F)c2)C(=O)O1 (stereo not given) ?
Data returned: 206 to 208 °C

###

Each entry below lists one item and its recorded melting point value.

Known results for molecules:
- molecule: "CC(C)(C)C(NC(=O)c1ccc(Cl)cc1)NC(=NC#N)Nc1cccc(F)c1 (stereo unspecified)"
  recordedValue: "167 to 170 °C"
- molecule: "CN(N=Cc1ccco1)C(=O)c1[nH]c2ccccc2c1-c1ccccc1"
  recordedValue: "196 to 199 °C"
- molecule: "COC(=O)c1cc(N)cc(N)c1SCc1ccccc1"
  recordedValue: "80 to 82 °C"
- molecule: "Cc1ccccc1C(=O)c1cc2c(c(Br)c1O)CCCC2"
  recordedValue: "151 to 153 °C"

Data request: Which melting point value belongs to `Cc1cn(CCCN2C(=O)c3ccc(Cl)c(Cl)c3C2=O)cn1` ?
Data returned: 147 to 151 °C

Data request: Likewise for `COC(=O)c1ccc2cc(-c3ccc(C(C)(C)C)cc3)oc2c1` ?
Data returned: 148 °C

Data request: Likewise for `COC(=O)[C@H](C)NC(=O)CCn1cc(C2=C(c3cn(C)c4ccccc34)C(=O)NC2=O)c2ccccc21` ?
Data returned: 142 to 149 °C

Data request: Likewise for CC(COc1ccc(CC2SC(=O)NC2=O)cc1)N1CC(Cc2ccccc2)OC1=O (stereo unspecified) ?
Data returned: 60 to 70 °C

Data request: Likewise for `O=[N+]([O-])c1cccc2c1COC2` ?
Data returned: 104 to 108 °C

Data request: Likewise for COc1cc2c(cc1Cl)CCN(C)CC2c1ccc(I)cc1 (stereo unspecified) ?
Data returned: 130 to 132 °C

Data request: Likewise for `O=S(=O)(Cl)c1cc(S(=O)(=O)Cl)c2cc(S(=O)(=O)Cl)cc(S(=O)(=O)Cl)c2c1` ?
Data returned: 263 to 270 °C
